target: SARS-CoV-2 full length spike protein, wild type, expressed on the surface of transiently transfected CHO cells (SARS-CoV-2, UniProt P0DTC2 14-1273)
experimental readout: median fluorescence fold over isotype control
I'd appreciate it if you wrote the number followed by its unit.

antibody 395 (antibody, V domains shown) VH: QVQLVQSGSELKKPGASVKLSCQASGYTFSNHAMNWVRQAPGQGLEWMGWINTNTGNPTYAQGFTGRFVFSLDTSVGTAYLHISSLKAEDTAFYYCARASARPGVATNLDFWGQGTLVVVSS VL: DIQMTQSPSSLSASVGDRVTITCRTSQNIDNYLNWYQQKPGKAPNLLIYAASRLHSGVPSRFSGSGSGTDFTLIISSLQPEDLATYYCQQSYSNPLTFGPGTKVDIR ... 7.8 fold over isotype
antibody 423 (antibody, V domains shown) VH: EVQLVESGGGLIQPGGSLRISCAASGFTVRNNHMSWVRQAPGKGLEWVSVFYRGGTTYYADSVKGRFTISRDDSKNTVDLQMNSLRGEDTAVYYCARGLSVAASGYFDCWGQGTLVTVSS VL: DIQMTQSPSSVSASVGDTVTITCRANQGISSWLAWYQQVPGKAPELLIYATSTLQSGVPSRFSGSGSGTDFTLTISSLQPEDFATYYCQQANSFPFTFGPGTKVDIK ... 14.6 fold over isotype

Please examine the following record next.
Task: Please supply the value of reported median fluorescence fold over isotype control for the item antibody 385 (antibody, V domains shown) VH: QVQLVESGGGVVQPGRSLRLSCAASGFTFSSYAIHWVRQAPGKGLEWVAVISYDGSNKYYADSVKGRFTISRDNSKNTLYLQMNSLRAEDTAVYYCARPRSGSYWGAFDIWGQGTMVTVSS VL: QSVLTQPPSVSGAPGQRVTISCTGSSSNIGARYDVHWYQQLPGTAPKLLIYGNSNRPSGVPDRFSGSKSGTSASLAITGLQAEDEADYYCQSYDSSLRGVFGGGTKLTVL
Result: 10.5 fold over isotype

Sourced from patent US20210292393A1
